Values from patent US20210171613A1

Target: T1, Clostridium difficile toxin A (TcdA) (Clostridium difficile, UniProt P16154 1-2710)
T1 construct: mature; also called full-length TcdA
T1 sequence (P16154 whole entry): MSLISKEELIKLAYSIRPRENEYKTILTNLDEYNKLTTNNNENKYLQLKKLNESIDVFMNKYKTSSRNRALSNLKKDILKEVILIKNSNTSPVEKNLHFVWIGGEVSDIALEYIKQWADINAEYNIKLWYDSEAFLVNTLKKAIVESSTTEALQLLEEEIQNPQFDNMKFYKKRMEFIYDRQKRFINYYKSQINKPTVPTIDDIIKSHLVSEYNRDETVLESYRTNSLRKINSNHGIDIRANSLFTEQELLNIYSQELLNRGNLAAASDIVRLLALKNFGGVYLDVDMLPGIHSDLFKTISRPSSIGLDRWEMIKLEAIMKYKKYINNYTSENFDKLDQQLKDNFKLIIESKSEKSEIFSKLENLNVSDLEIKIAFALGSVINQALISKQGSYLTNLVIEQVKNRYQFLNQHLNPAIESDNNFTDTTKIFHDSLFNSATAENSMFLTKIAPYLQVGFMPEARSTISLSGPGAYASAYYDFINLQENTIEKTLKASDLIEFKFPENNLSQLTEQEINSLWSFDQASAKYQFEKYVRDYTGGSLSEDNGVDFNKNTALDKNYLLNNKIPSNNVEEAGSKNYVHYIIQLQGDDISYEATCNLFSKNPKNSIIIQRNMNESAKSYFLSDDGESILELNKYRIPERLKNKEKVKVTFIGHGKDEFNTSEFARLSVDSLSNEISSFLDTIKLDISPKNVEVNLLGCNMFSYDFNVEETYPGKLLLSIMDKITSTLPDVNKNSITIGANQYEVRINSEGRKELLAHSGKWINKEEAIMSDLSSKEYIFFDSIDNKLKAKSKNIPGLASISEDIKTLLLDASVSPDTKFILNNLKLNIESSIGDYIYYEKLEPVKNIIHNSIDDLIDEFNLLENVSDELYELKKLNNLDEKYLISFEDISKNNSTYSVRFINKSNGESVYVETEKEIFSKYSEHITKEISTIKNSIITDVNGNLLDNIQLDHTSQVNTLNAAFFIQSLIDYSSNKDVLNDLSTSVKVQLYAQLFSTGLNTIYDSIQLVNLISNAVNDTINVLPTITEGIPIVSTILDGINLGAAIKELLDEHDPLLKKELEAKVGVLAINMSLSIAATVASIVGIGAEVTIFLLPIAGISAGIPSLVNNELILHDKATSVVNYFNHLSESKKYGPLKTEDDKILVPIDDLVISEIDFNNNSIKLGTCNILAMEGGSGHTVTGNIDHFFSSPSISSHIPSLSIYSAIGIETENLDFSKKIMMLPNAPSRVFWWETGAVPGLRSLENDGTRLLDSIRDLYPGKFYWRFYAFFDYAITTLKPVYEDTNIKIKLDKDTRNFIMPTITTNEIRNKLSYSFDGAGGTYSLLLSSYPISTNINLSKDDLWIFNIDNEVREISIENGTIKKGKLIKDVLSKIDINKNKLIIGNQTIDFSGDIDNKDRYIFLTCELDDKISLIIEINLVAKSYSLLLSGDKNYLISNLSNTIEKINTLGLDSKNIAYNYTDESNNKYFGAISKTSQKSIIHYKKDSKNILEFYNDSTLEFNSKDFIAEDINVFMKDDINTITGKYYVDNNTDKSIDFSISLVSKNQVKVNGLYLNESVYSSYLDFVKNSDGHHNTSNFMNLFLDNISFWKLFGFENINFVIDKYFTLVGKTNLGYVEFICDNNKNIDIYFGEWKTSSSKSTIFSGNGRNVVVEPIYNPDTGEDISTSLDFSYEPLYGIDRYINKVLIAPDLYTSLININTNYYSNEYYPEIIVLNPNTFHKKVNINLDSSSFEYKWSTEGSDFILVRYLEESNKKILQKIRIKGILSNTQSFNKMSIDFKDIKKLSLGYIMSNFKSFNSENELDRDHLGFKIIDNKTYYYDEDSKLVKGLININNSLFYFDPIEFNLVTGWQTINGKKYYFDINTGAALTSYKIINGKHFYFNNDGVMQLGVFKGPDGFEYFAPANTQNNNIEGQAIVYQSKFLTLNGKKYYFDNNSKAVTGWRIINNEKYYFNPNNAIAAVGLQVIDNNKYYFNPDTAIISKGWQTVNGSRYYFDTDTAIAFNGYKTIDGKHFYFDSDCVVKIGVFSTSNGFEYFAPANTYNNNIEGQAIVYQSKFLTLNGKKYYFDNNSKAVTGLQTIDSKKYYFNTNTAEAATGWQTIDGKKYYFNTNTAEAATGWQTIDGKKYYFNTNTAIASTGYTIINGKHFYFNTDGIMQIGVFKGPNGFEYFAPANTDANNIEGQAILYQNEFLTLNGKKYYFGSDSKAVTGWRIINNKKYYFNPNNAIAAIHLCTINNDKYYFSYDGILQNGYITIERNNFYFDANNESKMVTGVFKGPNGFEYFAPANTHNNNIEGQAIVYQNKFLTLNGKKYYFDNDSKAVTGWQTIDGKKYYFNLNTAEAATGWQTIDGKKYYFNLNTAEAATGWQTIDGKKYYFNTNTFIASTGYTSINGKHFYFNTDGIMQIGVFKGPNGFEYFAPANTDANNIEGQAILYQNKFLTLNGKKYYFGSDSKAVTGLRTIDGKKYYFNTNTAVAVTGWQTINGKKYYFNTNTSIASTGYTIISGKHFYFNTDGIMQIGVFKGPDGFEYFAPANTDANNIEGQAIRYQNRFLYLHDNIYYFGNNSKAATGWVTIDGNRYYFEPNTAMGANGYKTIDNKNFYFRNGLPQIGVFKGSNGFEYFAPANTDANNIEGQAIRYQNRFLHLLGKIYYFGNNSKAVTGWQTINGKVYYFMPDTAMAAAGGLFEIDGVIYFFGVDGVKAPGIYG
Test: SPR (Biacore 3000), VHH over immobilized TcdA, 1:1 fit

# binder, kon, M⁻¹ s⁻¹
data = [
    ("A26.8-N109R (VHH, not shown: small tags and cut ends) VHH: QVKLEESGGGLVQAGGSLRLSCAASERTFSRYPVAWFRQAPGAEREFVAVISSTGTSTYYADSVKGRFTISRDNAKVTVYLQMNNLKREDTAVYFCAVNSQRTRLQDPREYDYWGQGTQVTVSS", "1.95e+06"),
    ("A26.8 VHH mutant R104W (VHH, not shown: small tags and cut ends) VHH: QVKLEESGGGLVQAGGSLRLSCAASERTFSRYPVAWFRQAPGAEREFVAVISSTGTSTYYADSVKGRFTISRDNAKVTVYLQMNNLKREDTAVYFCAVNSQRTWLQDPNEYDYWGQGTQVTVSS", 330000),
    ("A26.8-Q101K,T103M (VHH, not shown: small tags and cut ends) VHH: QVKLEESGGGLVQAGGSLRLSCAASERTFSRYPVAWFRQAPGAEREFVAVISSTGTSTYYADSVKGRFTISRDNAKVTVYLQMNNLKREDTAVYFCAVNSKRMRLQDPNEYDYWGQGTQVTVSS", "3.31e+06"),
    ("A26.8-T56R, Q101K (VHH, not shown: small tags and cut ends) VHH: QVKLEESGGGLVQAGGSLRLSCAASERTFSRYPVAWFRQAPGAEREFVAVISSTGRSTYYADSVKGRFTISRDNAKVTVYLQMNNLKREDTAVYFCAVNSKRTRLQDPNEYDYWGQGTQVTVSS", "1.24e+07"),
]
